These entries and their values trace back to patent US20230125550A1.

Molecular target: T1, recombinant human CD123-Fc (human, UniProt P26951 19-305)
T1 construct: not shown: Fc part of CD123-Fc
T1 sequence: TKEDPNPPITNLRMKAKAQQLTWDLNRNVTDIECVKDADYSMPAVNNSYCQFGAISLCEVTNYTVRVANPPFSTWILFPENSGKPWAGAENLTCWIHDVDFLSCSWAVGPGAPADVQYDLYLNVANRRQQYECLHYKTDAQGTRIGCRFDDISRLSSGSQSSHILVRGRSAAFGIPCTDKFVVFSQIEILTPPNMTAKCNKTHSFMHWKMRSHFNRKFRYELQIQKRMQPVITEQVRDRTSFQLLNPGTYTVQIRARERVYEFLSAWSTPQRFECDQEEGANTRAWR
Experiment: phage ELISA, captured CD123-Fc
endpoint-name: ELISA_avg (ratio A450 target/IgG1-Fc)

binder	readout-units	readout-value
SEQ ID NO: 564 (designed binder, D domain, on phage) MGSWYEFYERLWAIDDRLWALGGSEAELAEFEDSIATFEPSLQMYKGKGNPEVEALVAEAWAIFDELAAYRHN	ratio A450 target/IgG1-Fc	3.6
SEQ ID NO: 582 (designed binder, D domain, on phage) MGSWFEFEYRLDAIIDRLFALGGSEAELAEFESMIANFEYSLQEYKGKGNPEVEALYFEADAIVDELTAYRHN	ratio A450 target/IgG1-Fc	4
SEQ ID NO: 535 (designed binder, D domain, on phage) MGSWWEFDHRLTAIDTRLQALGGSEAELAEFESSIAEFEWWLQDYKGKGNPEVEALFAEAEAIYVELDAYRHN	ratio A450 target/IgG1-Fc	4.3
